system: Alopecurus myosuroides (ALOMY); assay: Example A post-emergence herbicidal test, glasshouse; type: in vivo; conditions: rate 125 g/ha, evaluated 14 or 15 days later, 100=total damage to plant, 0=no damage to plant
Answer each item with its documented Post-Emergence Activity ALOMY.
Could you keep your reply to the number by itself?

Endpoint output: Post-Emergence Activity ALOMY of Cc1sc(-c2ccc(Cl)cc2)nc1C1C(=O)C(C)(C)OC(C)(C)C1=O . Value?
90

Would you mind doing CCc1sc(-c2ccc(Cl)cc2)nc1C1C(=O)C(C)(C)C(=O)C(C)(C)C1=O as well?
70

Please answer likewise for CCc1sc(-c2ccc(Cl)cc2)nc1C1C(=O)C(C)(C)OC(C)(C)C1=O
90

Try this molecule next: Cc1sc(-c2ccc(Cl)cc2)cc1C1C(=O)C(C)(C)OC(C)(C)C1=O
80

Here is the next molecule: Cc1[se]c(-c2ccc(Cl)cc2)nc1C1C(=O)C(C)(C)OC(C)(C)C1=O
70

---

For each record, write down the corresponding pest or weed control at 250 g/ha.
system: Amaranthus retoflexus (AMARE); test: Example B pre-emergence herbicidal test, glasshouse; type: in vivo; conditions: Amaranthus retroflexus, 312 h, rate 250 g/ha, evaluated after 13 days, 100=total damage to plant, 0=no damage to plant
Respond numerically; units are % and should not be typed.

# pest or weed control at 250 g/ha lookup, item Cc1sc(-c2ccc(Br)cn2)nc1C1=C(OC(=O)C(C)(C)C)C(C)(C)OC(C)(C)C1=O [Compound P5]
0

Cc1sc(-c2ccc(Cl)c(Cl)c2)nc1C1C(=O)C(C)(C)C(=O)C(C)(C)C1=O [Compound T43] , same question.
0

What about this compound? CCc1sc(-c2ccc(Br)cc2C)nc1C1C(=O)C(C)(C)OC(C)(C)C1=O [Compound T57]
0

// repeat for Cc1sc(COc2ccc(Cl)cc2)nc1C1C(=O)C(C)(C)OC(C)(C)C1=O [Compound T59] and report
0

Next entry: Cc1sc(-c2ccc(Cl)s2)nc1C1C(=O)C(C)(C)OC(C)(C)C1=O [Compound T55]
0

Query CCc1sc(-c2c(C)cc(Cl)cc2F)nc1C1C(=O)C(C)(C)OC(C)(C)C1=O [Compound T64] next
0

Similarly, Cc1cnc(-c2ccc(Cl)cc2)nc1C1C(=O)C(C)(C)OC(C)(C)C1=O [Compound T71] ?
0

Moving on to Cc1cc(Br)ccc1-c1nc(C2=C(OC(=O)C3CC3)C(C)(C)OC(C)(C)C2=O)c(C)s1 [Compound P7]
0

---

system: Avena fatua (AVEFA); test: Example B pre-emergence herbicidal test, glasshouse; format: in vivo; details: 312 h, rate 250 g/ha, evaluated after 13 days, 100=total damage to plant, 0=no damage to plant
Please respond with reported pest or weed control at 250 g/ha for every item in the list.
Answer format: numeric, % implied, no suffix.

Sample Cc1cc(Br)ccc1-c1nc(C2C(=O)C(C)(C)OC(C)(C)C2=O)c(C)s1 — what was its pest or weed control at 250 g/ha?
0

Same again, this time with Cc1sc(-c2ccc(Cl)c(Cl)c2)nc1C1C(=O)C(C)(C)C(=O)C(C)(C)C1=O
0

Consider next the compound CCc1sc(-c2ccc(Cl)cc2Cl)nc1C1C(=O)C(C)(C)OC(C)(C)C1=O in the same way.
0

Next compound up: Cc1sc(-c2ccc(Cl)cc2F)nc1C1C(=O)C(C)(C)C(=O)C(C)(C)C1=O
0

And Cc1cnc(-c2ccc(Cl)cc2)nc1C1C(=O)C(C)(C)OC(C)(C)C1=O ?
0

Repeat for the following compound: Cc1sc(-c2ccc([S+](C)[O-])cc2)nc1C1C(=O)C(C)(C)OC(C)(C)C1=O (centres unmarked)
0

Now the compound Cc1sc(-c2ccc(OC(F)F)cc2Cl)nc1C1C(=O)C(C)(C)OC(C)(C)C1=O
0

Cc1cc(-c2nc(C3C(=O)C(C)(C)C(=O)C(C)(C)C3=O)c(C)s2)ccc1Cl ?
0
